- Tested on: KS Y-1 cells
- Assay Procedure: KS Y-1 cell proliferation assay (MTT)
- Format: cell-based
- Test Context: first of two KSY-1 value columns; concentration not printed; 5 days, MTT
No end group written: not given here.
Consider the following substances and their measured Cell Proliferation Activity (% of control), KSY-1 readings.
Observation Type: Cell Proliferation Activity (% of control), KSY-1

>  <Substance>
DCIQMV [SEQ ID NO:23]

>  <Test System>
KS Y-1 cells

>  <Result>
68 % of control

$$$$
>  <Substance>
GDVSQDSIQMV [SEQ ID NO:20]

>  <Test System>
KS Y-1 cells

>  <Result>
93 % of control

$$$$
>  <Substance>
DVCQDCI [SEQ ID NO:26]

>  <Test System>
KS Y-1 cells

>  <Result>
72 % of control

$$$$
>  <Substance>
QDCIQMV [SEQ ID NO:31, QDCIQMV]

>  <Test System>
KS Y-1 cells

>  <Result>
74 % of control

$$$$
>  <Substance>
DVCQDC [SEQ ID NO:27]

>  <Test System>
KS Y-1 cells

>  <Result>
60 % of control

$$$$
>  <Substance>
CQDCIQMV [SEQ ID NO:30]

>  <Test System>
KS Y-1 cells

>  <Result>
77 % of control

$$$$
>  <Substance>
GDVCQDCIQMV [SEQ ID NO:19]

>  <Test System>
KS Y-1 cells

>  <Result>
28 % of control

$$$$
>  <Substance>
DVCQDCIQM [SEQ ID NO:24]

>  <Test System>
KS Y-1 cells

>  <Result>
68 % of control

$$$$
>  <Substance>
DVCQDCIQ [SEQ ID NO:25]

>  <Test System>
KS Y-1 cells

>  <Result>
72 % of control

$$$$
>  <Substance>
DVCQDCIQMV [SEQ ID NO:21]

>  <Test System>
KS Y-1 cells

>  <Result>
29 % of control

$$$$
>  <Substance>
VCQDCIQMV [SEQ ID NO:29]

>  <Test System>
KS Y-1 cells

>  <Result>
65 % of control

$$$$

###

- Tested on: KS Y-1 cells
- Assay Procedure: KS Y-1 cell proliferation assay (MTT)
- Type: cell-based
- Test Context: 10 μg/ml; 7,500 KS Y-1 cells/well, 5 days, MTT
No end group written: not given here.

>  <Substance>
GDVSQDSIQMV [SEQ ID NO:20]

>  <KS Cell Proliferation, % of Control>
92.9 % of Control

$$$$
>  <Substance>
DCIQMV [SEQ ID NO:23]

>  <KS Cell Proliferation, % of Control>
68.7 % of Control

$$$$
>  <Substance>
DVCQDCIQMV [SEQ ID NO:21]

>  <KS Cell Proliferation, % of Control>
26.1 % of Control

$$$$
>  <Substance>
QMMMHMQPKEICALVG [SEQ ID NO:18]

>  <KS Cell Proliferation, % of Control>
88.9 % of Control

$$$$
>  <Substance>
YISQYSEIAIQMMMHMQP [SEQ ID NO:17, YISQYSEIAIQMMMHMQP]

>  <KS Cell Proliferation, % of Control>
96.3 % of Control

$$$$
>  <Substance>
STFVQALVEHVKEECDR [SEQ ID NO:15]

>  <KS Cell Proliferation, % of Control>
101.8 % of Control

$$$$
>  <Substance>
IQMVTDIQTAVRTNSTF [SEQ ID NO:14]

>  <KS Cell Proliferation, % of Control>
89.3 % of Control

$$$$
>  <Substance>
QPKDNGDVCQDCIQV [SEQ ID NO:13]

>  <KS Cell Proliferation, % of Control>
17.9 % of Control

$$$$

###

- Tested on: KS Y-1 cells
- Assay Procedure: KS Y-1 cell proliferation assay (MTT)
- Type: cell-based
- Test Context: 50 μg/mL; 7,500 KS Y-1 cells/well, 5 days, MTT
Observation Type: KS Cell Proliferation, % of Control

>  <Substance>
DCIQMV [SEQ ID NO:23]

>  <Result>
51.3 % of Control

$$$$
>  <Substance>
DVCQDCIQMV [SEQ ID NO:21]

>  <Result>
7.0 % of Control

$$$$
>  <Substance>
QPKDNGDVCQDCIQV [SEQ ID NO:13]

>  <Result>
1.8 % of Control

$$$$
>  <Substance>
GDVSQDSIQMV [SEQ ID NO:20]

>  <Result>
82.1 % of Control

$$$$
